Listed molecules paired with reported Ratio
# Species on record: Canis familiaris
# protocol_details: Pulmonary selectivity measured as the ratio of salivation and bronchospasm
# Assay type: functional, Canis lupus familiaris, Bronchiole
Write no unit; give the number alone.

Sample answers from the record:
{"columns": ["molecule", "Ratio"],
 "data": [
  ["CCNC(C)CN1CCc2c(c(=O)oc3cc(C)ccc23)C1 (stereo not drawn)", 0.36],
  ["CCOc1cc2oc(=O)c3c(c2cc1OCC)CCN(CC(C)N1CCCCC1)C3 (stereo not drawn)", 1.5]
]}

*Q* State its Ratio: CCCN(CC)C(C)CN1CCc2c(c(=O)oc3cc(C)ccc23)C1 (stereo not drawn)
*A* 1.6

*Q* State its Ratio: Cc1ccc2c3c(c(=O)oc2c1)CN(CCN1CC2CCC(CC2)C1)CC3
*A* 1.9

---

Listed molecules paired with reported Collapse time
# Test system: Cavia porcellus
# protocol_details: Methacholine challenge test was performed on guinea pigs by administration of compound at 25 mg/kg perorally
# Format: functional
# conditions: route oral
Record the value in min, omitting the unit from your answer.

Sample answers from the record:
{"columns": ["molecule", "assayed_target", "units_symbol", "Collapse time"],
 "data": [
  ["CC(CN1CCc2c(c(=O)oc3ccccc23)C1)N(C)C (stereo not given)", "Cavia porcellus", "min", 10],
  ["CCCN(C)C(C)CN1CCc2c(c(=O)oc3cc(OC)ccc23)C1 (stereo not given)", "Cavia porcellus", "min", 10],
  ["Cc1ccc2c3c(c(=O)oc2c1)CN(CC(C)N(C)C)CC3 (stereo not given)", "Cavia porcellus", "min", 10],
  ["COc1cc2oc(=O)c3c(c2cc1OC)CCN(CC(C)N1CCCCC1)C3 (stereo not given)", "Cavia porcellus", "min", 10],
  ["COc1ccc2c3c(c(=O)oc2c1)CN(CCN1CCCCC1)CC3", "Cavia porcellus", "min", 9.5],
  ["Cc1ccc2c3c(c(=O)oc2c1)CN(CCN1CC2CCC(CC2)C1)CC3", "Cavia porcellus", "min", 5],
  ["CCN(CC)C(C)CN1CCc2c(c(=O)oc3cc(C)ccc23)C1 (stereo not given)", "Cavia porcellus", "min", 6.6],
  ["CCCN(CC)C(C)CN1CCc2c(c(=O)oc3cc(C)ccc23)C1 (stereo not given)", "Cavia porcellus", "min", 7.6],
  ["CCNC(C)CN1CCc2c(c(=O)oc3ccccc23)C1 (stereo not given)", "Cavia porcellus", "min", 10],
  ["CCCN(CC)C(C)CN1CCc2c(c(=O)oc3cc(OC)ccc23)C1 (stereo not given)", "Cavia porcellus", "min", 10]
]}

*Q* Please respond with reported Collapse time (system Cavia porcellus) for CCCN(CC)C(C)CN1CCc2c(c(=O)oc3cc(OC)c(OC)cc23)C1 (stereo not given) .
*A* 3.7

*Q* Please respond with reported Collapse time (system Cavia porcellus) for COc1cc2oc(=O)c3c(c2cc1OC)CCN(CC(C)N1CCOCC1)C3 (stereo not given) .
*A* 10

---

# Species: Canis familiaris
# protocol_details: Pulmonary selectivity measured as the ratio of salivation and bronchospasm
# Format: functional, Canis lupus familiaris, Bronchiole
# Ratio >= 2 gives Met, anything below gives Not met

{"columns": ["molecule", "class_name"],
 "data": [
  ["COc1cc2oc(=O)c3c(c2cc1OC)CCN(CC(C)N1CCCCC1)C3 (stereo not drawn)", "Not met"],
  ["CCCN(CC)C(C)CN1CCc2c(c(=O)oc3ccccc23)C1 (stereo not drawn)", "Not met"],
  ["COc1ccc2c3c(c(=O)oc2c1)CN(CCN1CCOCC1)CC3", "Not met"],
  ["CCN(CC)C(C)CN1CCc2c(c(=O)oc3cc(C)ccc23)C1 (stereo not drawn)", "Met"],
  ["CC(CN1CCc2c(c(=O)oc3ccccc23)C1)N1CCCC1 (stereo not drawn)", "Met"],
  ["CCCN(CC)C(C)CN1CCc2c(c(=O)oc3cc(OC)ccc23)C1 (stereo not drawn)", "Not met"]
]}

*Q* Test whether the molecule CCNC(C)CN1CCc2c(c(=O)oc3cc(OC)ccc23)C1 (stereo not drawn) records Ratio of 2 or higher.
*A* Met

*Q* Test whether the molecule COc1ccc2c3c(c(=O)oc2c1)CN(CCN1CC2CCC(CC2)C1)CC3 records Ratio of 2 or higher.
*A* Met

*Q* Test whether the molecule Cc1cc2oc(=O)c3c(c2cc1C)CCN(CC(C)N1CCCC1)C3 (stereo not drawn) records Ratio of 2 or higher.
*A* Met

*Q* Test whether the molecule COc1ccc2c3c(c(=O)oc2c1)CN(CCN1CCCCC1)CC3 records Ratio of 2 or higher.
*A* Not met

*Q* Test whether the molecule Cc1ccc2c3c(c(=O)oc2c1)CN(CC(C)N1CCCCC1)CC3 (stereo not drawn) records Ratio of 2 or higher.
*A* Met

*Q* Test whether the molecule Cc1ccc2c3c(c(=O)oc2c1)CN(CC(C)N(C)C)CC3 (stereo not drawn) records Ratio of 2 or higher.
*A* Met

*Q* Test whether the molecule Cc1cc2oc(=O)c3c(c2cc1C)CCN(CC(C)N1CCCCC1)C3 (stereo not drawn) records Ratio of 2 or higher.
*A* Met

*Q* Test whether the molecule CCN(C)C(C)CN1CCc2c(c(=O)oc3cc(OC)c(OC)cc23)C1 (stereo not drawn) records Ratio of 2 or higher.
*A* Not met

*Q* Test whether the molecule COc1cc2oc(=O)c3c(c2cc1OC)CCN(CCN1CC2CCC(CC2)C1)C3 records Ratio of 2 or higher.
*A* Met

*Q* Test whether the molecule CCN(CC)C(C)CN1CCc2c(c(=O)oc3cc(OC)ccc23)C1 (stereo not drawn) records Ratio of 2 or higher.
*A* Not met

*Q* Test whether the molecule Cc1cc2oc(=O)c3c(c2cc1C)CCN(CCN1CC2CCC(CC2)C1)C3 records Ratio of 2 or higher.
*A* Not met

*Q* Test whether the molecule O=c1oc2ccccc2c2c1CN(CCN1CC3CCC(CC3)C1)CC2 records Ratio of 2 or higher.
*A* Not met

*Q* Test whether the molecule CCN(CC)C(C)CN1CCc2c(c(=O)oc3cc(OC)c(OC)cc23)C1 (stereo not drawn) records Ratio of 2 or higher.
*A* Met

*Q* Test whether the molecule CCN(CC)C(C)CN1CCc2c(c(=O)oc3ccccc23)C1 (stereo not drawn) records Ratio of 2 or higher.
*A* Met

*Q* Test whether the molecule COc1cc2oc(=O)c3c(c2cc1OC)CCN(CCN1CC2CCC1CC2)C3 records Ratio of 2 or higher.
*A* Not met

*Q* Test whether the molecule CCc1ccc2c3c(c(=O)oc2c1)CN(CCN1CC2CCC(CC2)C1)CC3 records Ratio of 2 or higher.
*A* Not met

---

Listed molecules paired with reported Collapse time
# System: Cavia porcellus
# protocol_details: Methacholine challenge test was performed on guinea pigs by administration of compound at 25 mg/kg perorally
# Type: functional
# conditions: route oral
Please give the number followed by its unit.

Sample answers from the record:
{"columns": ["molecule", "Collapse time"],
 "data": [
  ["CCOc1cc2oc(=O)c3c(c2cc1OCC)CCN(CC(C)N1CCCC1)C3 (stereo not drawn)", "9.4 min"],
  ["CCNC(C)CN1CCc2c(c(=O)oc3cc(OC)c(OC)cc23)C1 (stereo not drawn)", "1.7 min"],
  ["COc1cc2oc(=O)c3c(c2cc1OC)CCN(CC(C)N(C)C)C3 (stereo not drawn)", "5.2 min"],
  ["CCN(CC)C(C)CN1CCc2c(c(=O)oc3cc(OC)ccc23)C1 (stereo not drawn)", "10 min"],
  ["CCOc1cc2oc(=O)c3c(c2cc1OCC)CCN(CC(C)N1CCCCC1)C3 (stereo not drawn)", "10 min"],
  ["COc1ccc2c3c(c(=O)oc2c1)CN(CCN1CC2CCCC(C2)C1)CC3", "7.3 min"],
  ["COc1cc2oc(=O)c3c(c2cc1OC)CCN(CCN1CC2CCC(CC2)C1)C3", "5 min"],
  ["COc1cc2oc(=O)c3c(c2cc1OC)CCN(CCN1C(C)(C)CCCC1(C)C)C3", "2.8 min"],
  ["CC(C)c1ccc2c3c(c(=O)oc2c1)CN(CCN1CC2CCC(CC2)C1)CC3", "6.2 min"],
  ["CCCN(C)C(C)CN1CCc2c(c(=O)oc3cc(OC)c(OC)cc23)C1 (stereo not drawn)", "2.5 min"]
]}

*Q* State its Collapse time: CCNC(C)CN1CCc2c(c(=O)oc3cc(C)ccc23)C1 (stereo not drawn)
*A* 10 min

*Q* State its Collapse time: COc1cc2oc(=O)c3c(c2cc1OC)CCN(CCCN1CCCCC1)C3
*A* 1.6 min

*Q* State its Collapse time: CCN(CC)C(C)CN1CCc2c(c(=O)oc3cc(OC)c(OC)cc23)C1 (stereo not drawn)
*A* 7.8 min

---

Listed compounds paired with reported Ratio
# Species on record: Canis familiaris
# protocol_details: Pulmonary selectivity measured as the ratio of salivation and bronchospasm
# Assay type: functional, Canis lupus familiaris, Bronchiole

*Q* State its Ratio: CC(C)c1ccc2c3c(c(=O)oc2c1)CN(CCN1CC2CCC(CC2)C1)CC3
*A* 0.61
